Target: hERG channel (Homo sapiens (Human))
Sequence (Q12809 whole entry): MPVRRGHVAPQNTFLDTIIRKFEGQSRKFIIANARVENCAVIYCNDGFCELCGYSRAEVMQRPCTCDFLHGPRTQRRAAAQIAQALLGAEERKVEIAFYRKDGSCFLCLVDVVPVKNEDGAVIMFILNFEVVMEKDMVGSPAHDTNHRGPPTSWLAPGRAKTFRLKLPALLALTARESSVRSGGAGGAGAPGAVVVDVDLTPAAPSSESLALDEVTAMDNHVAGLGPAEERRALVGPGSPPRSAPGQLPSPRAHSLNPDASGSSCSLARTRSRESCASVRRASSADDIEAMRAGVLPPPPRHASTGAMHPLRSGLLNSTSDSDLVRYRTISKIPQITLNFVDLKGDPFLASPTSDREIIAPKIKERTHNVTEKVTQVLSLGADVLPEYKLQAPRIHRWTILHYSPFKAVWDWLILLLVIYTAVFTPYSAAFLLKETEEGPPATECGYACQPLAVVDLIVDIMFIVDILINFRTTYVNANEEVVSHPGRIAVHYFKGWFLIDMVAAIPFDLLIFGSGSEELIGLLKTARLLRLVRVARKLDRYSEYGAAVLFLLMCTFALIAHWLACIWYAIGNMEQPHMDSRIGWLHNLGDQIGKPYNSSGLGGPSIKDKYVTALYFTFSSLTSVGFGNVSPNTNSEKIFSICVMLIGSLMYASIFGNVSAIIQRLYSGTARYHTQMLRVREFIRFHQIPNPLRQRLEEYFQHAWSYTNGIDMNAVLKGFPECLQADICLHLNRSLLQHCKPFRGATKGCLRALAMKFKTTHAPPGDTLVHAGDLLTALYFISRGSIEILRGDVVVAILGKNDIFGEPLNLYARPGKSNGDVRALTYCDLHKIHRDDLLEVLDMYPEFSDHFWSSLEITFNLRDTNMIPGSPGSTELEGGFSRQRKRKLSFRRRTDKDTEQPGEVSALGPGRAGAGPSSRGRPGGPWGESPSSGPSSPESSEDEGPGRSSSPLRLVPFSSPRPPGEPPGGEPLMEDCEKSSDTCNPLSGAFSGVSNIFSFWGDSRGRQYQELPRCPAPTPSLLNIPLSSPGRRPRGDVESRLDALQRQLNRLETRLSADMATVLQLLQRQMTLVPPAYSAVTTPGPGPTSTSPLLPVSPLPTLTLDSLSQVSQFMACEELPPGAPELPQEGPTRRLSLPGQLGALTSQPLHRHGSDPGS
Assay: Test 6-1: inhibitory activity for hERG channel (auto patch clamp, Qpatch)
Format: cell-based
Conditions: whole cell auto patch clamp, hERG-CHO cells; read-out: hERG inhibition IC50
Known IC50 of a selection of molecules
resultType: IC50 (nM)

{"molecule": "O=C1c2[nH]ncc2CCN1CCN1CCC(c2noc3ccccc23)CC1 [Example 98]", "testedSystem": "hERG channel (Homo sapiens (Human))", "unitTag": "nM", "resultNumber": 1100}
{"molecule": "Cn1cc2c(n1)C(=O)N(CCN1CCC(c3noc4ccccc34)CC1)CCC2 [Example 48]", "testedSystem": "hERG channel (Homo sapiens (Human))", "unitTag": "nM", "resultNumber": 1200}
{"molecule": "Cn1cnc2c1C(=O)N(CCN1CCC(c3noc4ccccc34)CC1)CCC2 [Example 134]", "testedSystem": "hERG channel (Homo sapiens (Human))", "unitTag": "nM", "resultNumber": 3500}
{"molecule": "O=C1c2cnc(C3CC3)nc2CCN1CCN1CCN(c2nsc3ccccc23)CC1 [Example 94]", "testedSystem": "hERG channel (Homo sapiens (Human))", "unitTag": "nM", "resultNumber": 2300}
{"molecule": "Cc1cc2c(n1C)CCCN(CCN1CCN(c3nsc4ccccc34)CC1)C2=O [Example 167]", "testedSystem": "hERG channel (Homo sapiens (Human))", "unitTag": "nM", "resultNumber": 1800}

* * *

Assay: Test 4: metabolic stability test in human hepatic microsome
Type: in vitro ADME
Conditions: 0.1 mg/mL microsome, 0.1 μmol/L compound, 37° C., 30 minutes
resultType: Metabolic stability in human hepatic microsome

{"smiles": "O=c1c2ncccc2ccn1CCN1CCN(c2nsc3ccccc23)CC1", "result": "0.064 mL/min/mg protein"}
{"smiles": "Cn1cnc2c1C(=O)N(CCN1CCC(c3noc4ccccc34)CC1)CC2", "result": "<0.05 mL/min/mg protein"}
{"smiles": "O=C1c2nc[nH]c2CCN1CCN1CCC(c2noc3ccccc23)CC1", "result": "<0.05 mL/min/mg protein"}

* * *

Target: UniProt P08908
Sequence (P08908 whole entry): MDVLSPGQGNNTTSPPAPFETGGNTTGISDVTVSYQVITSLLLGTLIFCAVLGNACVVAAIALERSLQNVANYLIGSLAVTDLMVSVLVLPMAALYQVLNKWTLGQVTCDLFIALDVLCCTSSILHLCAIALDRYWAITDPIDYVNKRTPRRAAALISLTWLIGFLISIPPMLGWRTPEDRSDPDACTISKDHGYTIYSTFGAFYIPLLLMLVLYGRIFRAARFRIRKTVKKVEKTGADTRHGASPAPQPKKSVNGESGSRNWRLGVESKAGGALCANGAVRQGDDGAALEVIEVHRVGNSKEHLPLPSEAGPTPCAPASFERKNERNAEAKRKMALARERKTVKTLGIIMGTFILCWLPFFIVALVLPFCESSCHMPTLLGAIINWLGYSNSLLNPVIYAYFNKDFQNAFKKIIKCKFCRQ
Assay: Test 2: agonist activity for human 5-HT1A receptor ([35S]GTPγS binding)
Type: biochemical
Conditions: agonist activity in the presence of 10 μM of compound, relative to 100 μmol/L 5-HT
Description: Test 2: Evaluation of Agonist Activity for Human 5-HT1A Receptor CHO cell membrane fraction in which human 5-HT1A receptor was expressed as used in Test 1 was purchased. To a buffer containing guanosine diphosphate were added a test compound dissolved in DMSO, each receptor membrane sample diluted with buffer, and [^35S] […] Radioactivity remaining on the […] was measured with a liquid scintillation counter. Agonist activity was calculated from the following formula.

{"compound": "[2H]C([2H])([2H])Oc1cc2c(cn1)C(=O)N(CCN1CCN(c3nsc4ccccc34)CC1)CC2([2H])[2H]", "Emax at 10 µM, %": 64}
{"compound": "O=c1c2cnccc2ccn1CCN1CCN(c2noc3ccccc23)CC1", "Emax at 10 µM, %": 60}
{"compound": "O=C1c2oc(C3CC3)nc2CCN1CCN1CCC(c2noc3ccccc23)CC1", "Emax at 10 µM, %": 38}
{"compound": "Cc1nc2c(o1)CCN(CCN1CCC(c3noc4ccccc34)CC1)C2=O", "Emax at 10 µM, %": 61}
{"compound": "O=C1c2ncccc2CCN1CCN1CCC(c2noc3ccc(F)cc23)CC1", "Emax at 10 µM, %": 60}
{"compound": "Cc1nc2c(o1)C(=O)N(CCN1CCN(c3nsc4ccccc34)CC1)CC2", "Emax at 10 µM, %": 65}
{"compound": "Cc1ncc2c(=O)n(CCN3CCN(c4noc5ccccc45)CC3)ccc2n1", "Emax at 10 µM, %": 27}
{"compound": "CC1(CCN2CCN(c3noc4ccccc34)CC2)CCc2cccnc2C1=O (centres unmarked)", "Emax at 10 µM, %": 58}
{"compound": "Cc1cncc2c1CCN(CCN1CCN(c3noc4ccccc34)CC1)C2=O", "Emax at 10 µM, %": 19}
{"compound": "Cn1ccc2c1CCCN(CCN1CCN(c3noc4ccccc34)CC1)C2=O", "Emax at 10 µM, %": 60}
{"compound": "O=C1c2ncccc2CCC1CCN1CCN(c2noc3ccccc23)CC1 (centres unmarked)", "Emax at 10 µM, %": 55}
